Examples of molecules with documented Percent Effect follow.
Test system: Wolbachia pipientis
measurement protocol: Anti-Wolbachia Cell-Based Screen
Format: functional
Set-up: scale not given: in the data most compounds retested in dose-response had high values
setup conditions: 5 µM
In all, about 48,000 compounds went through this assay and about 13,000 (27%) showed an effect of 50% or more. The list shows a part of the results.
metric name: Percent Effect (%)

{"molecule": "Cc1nonc1CN1CC[C@@](O)(C2CCC2)[C@H](C)C1", "metric name": "Percent Effect", "recorded value": 2.704}
{"molecule": "Cc1cc(F)ccc1CN1CCCC2(C1)OCCO2", "metric name": "Percent Effect", "recorded value": -1.552}
{"molecule": "COc1cccc(C(O)CN2CCN(c3cccc(C)c3)CC2)c1 (stereo not drawn)", "metric name": "Percent Effect", "recorded value": 140.6}
{"molecule": "COc1ccc(CC(=O)N2CCc3nnc(N(C)C)cc3C2)cc1F", "metric name": "Percent Effect", "recorded value": -3.012}
{"molecule": "CCOCCC(=O)N1CCCN(c2ccccc2C)CC1", "metric name": "Percent Effect", "recorded value": 0.9002}
{"molecule": "Cc1nnsc1CN1CC[C@@](O)(C2CCC2)[C@H](C)C1", "metric name": "Percent Effect", "recorded value": -20.69}
{"molecule": "COc1c(CNC2CCCN(c3ncccn3)C2)c(C(C)C)nn1C (stereo not drawn)", "metric name": "Percent Effect", "recorded value": 105}
{"molecule": "CCn1cnnc1CNC(=O)c1ccc(Br)cc1F", "metric name": "Percent Effect", "recorded value": -45.58}
{"molecule": "CCOC(=O)CC1CCCCN1C(=O)CCc1cc(Cl)no1 (stereo not drawn)", "metric name": "Percent Effect", "recorded value": -3.772}
{"molecule": "CCOCC(=O)N1Cc2[nH]nc(COCC3CC3)c2C1.O=C(O)C(F)(F)F", "metric name": "Percent Effect", "recorded value": -0.4061}
{"molecule": "CCCN1CCN(Cc2cn(CCC(N)=O)c3ccccc23)CC1", "metric name": "Percent Effect", "recorded value": 5.612}
{"molecule": "CC(C)c1nc(S(=O)(=O)N(C)c2ccc(F)cc2)c[nH]1", "metric name": "Percent Effect", "recorded value": -3.559}
{"molecule": "COc1ccc(OC)c(C(O)CN2CCN(c3cccc(C)c3)CC2)c1 (stereo not drawn)", "metric name": "Percent Effect", "recorded value": 116.6}
{"molecule": "CNC(=O)C1(C)CN(Cc2cn(C)c3ccc(F)cc23)CCO1 (stereo not drawn)", "metric name": "Percent Effect", "recorded value": 119.3}
{"molecule": "O=C(CC1CCc2ccccc21)NC1(C(=O)O)CCCC1 (stereo not drawn)", "metric name": "Percent Effect", "recorded value": 9.016}
{"molecule": "Cc1nonc1CN1CC[C@@](O)(C2CCOCC2)[C@H](C)C1", "metric name": "Percent Effect", "recorded value": -5.747}
{"molecule": "Cc1n[nH]c(C)c1CCc1ccc(S(C)(=O)=O)cc1", "metric name": "Percent Effect", "recorded value": 1.11}
{"molecule": "CCn1c(C2CCN(C(=O)c3cc(CC(C)C)no3)CC2)nn(C)c1=O", "metric name": "Percent Effect", "recorded value": 80.93}
{"molecule": "CN(C)CCOC1CC2(CCN(c3cnccn3)CC2)c2ccccc21.O=C(O)C(F)(F)F (stereo not drawn)", "metric name": "Percent Effect", "recorded value": -0.2574}
{"molecule": "CCc1nnc(C(C)N(C)Cc2c(C)nn(-c3ccccc3)c2C)o1 (stereo not drawn)", "metric name": "Percent Effect", "recorded value": 1.844}
{"molecule": "Cc1ccc(C(=O)NCc2ccc(N3CCNC(=O)C3)c(F)c2)cc1", "metric name": "Percent Effect", "recorded value": -3.953}
{"molecule": "CN1CCN2CCN(C(=O)c3cnn4cc(CCO)cnc34)CC2C1 (stereo not drawn)", "metric name": "Percent Effect", "recorded value": -3.17}
{"molecule": "CCn1c(C2CCN(C(=O)c3cc(C4CC4)on3)CC2)nn(C)c1=O", "metric name": "Percent Effect", "recorded value": 94.75}
